target-of-assay: human M4 muscarinic acetylcholine receptor (Homo sapiens, UniProt P08173)
Sequence (P08173 1-479): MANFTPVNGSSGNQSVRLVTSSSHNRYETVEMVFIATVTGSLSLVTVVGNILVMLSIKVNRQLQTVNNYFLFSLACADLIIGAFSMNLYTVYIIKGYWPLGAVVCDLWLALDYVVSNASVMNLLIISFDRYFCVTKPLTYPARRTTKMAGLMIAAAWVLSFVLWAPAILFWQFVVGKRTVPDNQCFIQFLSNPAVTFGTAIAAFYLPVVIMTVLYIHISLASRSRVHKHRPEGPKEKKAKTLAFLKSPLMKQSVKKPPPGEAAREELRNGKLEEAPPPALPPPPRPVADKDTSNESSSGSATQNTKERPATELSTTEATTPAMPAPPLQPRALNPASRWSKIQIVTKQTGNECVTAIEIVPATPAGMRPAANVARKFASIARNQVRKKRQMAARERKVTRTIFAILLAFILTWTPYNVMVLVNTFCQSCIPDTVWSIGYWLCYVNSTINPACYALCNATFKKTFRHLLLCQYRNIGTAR
test-details: human FLIPR-based M4 PAM assay (calcium mobilization in CHO-K1 cells with human M4 receptor and Gαqi5)
condition-label: inflection point of dose response curve, acetylcholine at 20% of maximum response, FLIPR Tetra, read-out: M4 PAM IP
assay-readout: EC50 (µM)

Examples with their reported EC50 follow.
compound | assay-readout | result-units | experimental-result
CC(C)N1Cc2ncc(-c3nc(C#N)ccc3-c3cnn(CC4(C)CCCC4)c3)cc2C1=O [Example 121] | EC50 | µM | 0.134
CN1Cc2ncc(-c3nc(C(F)(F)F)ccc3-c3cnn(CC4(C)CCCC4)c3)cc2C1=O [Example 81] | EC50 | µM | 0.046
Cc1cc(-c2cnn(CC3(C)CCCC3)c2)c(-c2ccc3c(c2)C(=O)N(C)C3)nc1F [Example 53] | EC50 | µM | 0.061
CC1(Cn2cc(-c3cccnc3-c3ccc4c(c3)C(=O)NC4)cn2)CCCC1 [Example 24] | EC50 | µM | 0.02
CN1Cc2ccc(-c3ncccc3-c3cnn(CC4(C)CCCC4)c3)cc2C1=O [Example 25] | EC50 | µM | 0.021
Cc1ccc(-c2cnn(CC3CCCC3)c2)c(-c2ccc3c(c2)C(=O)N(C2CC2)C3)n1 [Example 6] | EC50 | µM | 0.02

(a) CN1Cc2ccc(-c3nc(C#N)ccc3-c3cnn(CC4(C)CCCC4)c3)cc2C1=O [Example 2]
(b) CC1(Cn2ncc(-c3ccc(C#N)nc3-c3ccc4c(c3)C(=O)N(C3CC3)C4)c2F)CCCC1 [Example 44]
(c) CN1Cc2ccc(-c3nc4c(cc3-c3cnn(CC5(C)CCCC5)c3)CCC4)cc2C1=O [Example 39]
(d) CNC(=O)c1ccc(-c2cnn(CC3CCCC3)c2)c(-c2ccc3c(c2)C(=O)N(C2CC2)C3)n1 [Example 13]
(e) CC1(Cn2cc(-c3ccc(F)nc3-c3ccc4c(c3)C(=O)N(C3CC3)C4)cn2)CCCC1 [Example 35]
Sequence the entries by EC50, beginning with the highest number. Return value: ordered labels per request.
d, b, c, a, e
